# tested.on: T1, purified Integrin αvβ3 (UniProt P06756 31-992; P05106 27-718, limits assumed)
# T1 construct: Purified integrin coated on 96-well plates; also called integrin alpha-v-beta3; αVβ3 integrin
# experiment: saturation binding of ALOS4-FITC in wells pre-coated with integrin αvβ3, fluorescence, nonlinear regression; direct saturation binding of ALOS4-FITC on αvβ3-coated wells (panel A)
Bridge positions count the residues as written; N and C are the ends. Ends that are not written are not given here.
assay.readout: Kd (nM)
Answers are plain numbers, in nM.

Ask: Endpoint output: Kd of CSSAGSLFC (disulfide 1-9 (inferred); also: FITC label, position not given here, Synthetic peptide from the phage display screen; also called ALOS4-FITC; ALOS peptides) [ALOS-4, fluorescein (FITC)-labeled] . Value?
Reply: 192

Reference for the values: patent US20190194253A1
